Assay: Short-term room temperature stability of Pool 3 mixed with Hiltonol (RP-HPLC)
Assay type: physicochemical
Settings: Pool 3 + Hiltonol, 4 Hours RT
Property Label: Total Impurities

# example entries with known answers
H-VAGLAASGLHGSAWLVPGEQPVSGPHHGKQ-OH [CS6931] | 265.54
H-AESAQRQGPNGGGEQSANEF-OH [CS7416] | 148.82

P. H-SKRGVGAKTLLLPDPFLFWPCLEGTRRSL-OH [CS6934]
Q. H-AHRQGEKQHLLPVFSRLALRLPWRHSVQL-OH [CS6941]
Task: Given P and Q , report the one with the higher recorded Total Impurities. In your reply, give the label of the chosen option.
Output: P
(P: 184.46, Q: 0)
